# assay.text: Solubility of the compound in DMSO at 200 mM
# Format: physicochemical
# measurement.conditions: 200000 µM
measured.metric: solubility

Cc1cc2cc(NC(=O)c3sc4nc(C(F)(F)F)ccc4c3C)ccc2[nH]1 = Soluble
CC1Oc2ccc(N)cc2NC1=O (configuration not stated) = Soluble
Cn1c(=O)n(C)c2cc(N)ccc21 = Soluble
CC1CCCC(C)N1C(=O)CSc1nc2sc3c(c2c(=O)n1C)CCCC3 (configuration not stated) = Soluble
O=C1C(=O)N(CCCOc2ccccc2)c2ccc(Cl)cc21 = Soluble
COc1ccc(OC)c(CCC(=O)Nc2ccc3c(c2)n(C)c(=O)n3C)c1 = Soluble
CC1(C)C(=O)Nc2cc(C(=O)O)ccc21 = Soluble
Cc1cc2cc(NC(=O)c3ccc(Oc4ccc(C(F)(F)F)cn4)cc3)ccc2[nH]1 = Soluble

Kindly note the recorded solubility for `Cc1nc(-c2cccc(N)c2)cs1` , which is Soluble

# solubility of `Cc1cc2cc(N)ccc2[nH]1` = Soluble

solubility measured on `COCCOc1ccccc1CNc1ccc2c(c1)n(C)c(=O)n2C` = Soluble

Briefly, solubility measured for `Cc1nc2ccc(C(=O)O)cc2o1` : Soluble
